system: HSSY-II tumor spheroid viability; assay: Anticancer human tumor HSSY-II cell line growth inhibition; conditions: second compound 0.0003 µM; first compound 0.316 µM; active compounds read low; spheroids with HUVEC and MSC;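 note: spheroids exposed to compounds for seven days before reading; percent of DMSO vehicle control viability so 100% = untreated level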
List of viability, T/C values.
outcomeMeasure: viability, T/C (%)

| compound | valueUnits | numericResult |
| --- | --- | --- |
| COc1ccc([C@@H](O)c2cc(-c3ncnc4cc(N5CCOCC5)ccc34)c(F)cc2Cl)nn1 + COc1cc2c(cc1O)CCNC21CSC2c3c(OC(C)=O)c(C)c4c(c3C(COC1=O)N1C(O)C3Cc5cc(C)c(OC)c(O)c5C(C21)N3C)OCO4 | % | 7.96 |
| COc1cc(C)[nH]c(=O)c1CN1CCc2c(Cl)cc(C(OC)C3COC3)c(Cl)c2C1=O (configuration not stated) + COc1cc2c(cc1O)CCNC21CSC2c3c(OC(C)=O)c(C)c4c(c3C(COC1=O)N1C(O)C3Cc5cc(C)c(OC)c(O)c5C(C21)N3C)OCO4 | % | 19.4 |

====

System: HSSY-II tumor spheroid viability
Test: Anticancer human tumor HSSY-II cell line growth inhibition;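 note: spheroids exposed to compounds for seven days before reading; percent of DMSO vehicle control viability so 100% = untreated level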
Settings: second compound 0.03 µM; first compound 3 µM; active compounds read low; spheroids with HUVEC and MSC
Procedure: Multicellular complex tumor spheroid response to DNA repair inhibitors in combination with DNA-damaging drugs This study explores the anticancer activities of DNA-damaging drugs and inhibitors of DNA damage repair, both as single agents and in combinations. […] Twenty-six patient-derived or established malignant cell lines were evaluated representing sarcoma, melanoma, small cell lung cancer (SCLC), non-small cell lung cancer (NSCLC), as well as bladder, ovarian and pancreatic cancers. […]
List of viability, T/C values.

| molecule | viability, T/C (%) |
| --- | --- |
| Cn1ncnc1[C@H]1c2n[nH]c(=O)c3cc(F)cc(c23)N[C@@H]1c1ccc(F)cc1 + CC[C@@]1(O)C(=O)OCc2c1cc1n(c2=O)Cc2cc3c(CN(C)C)c(O)ccc3nc2-1 | 3.48 |
| O=C(c1cc(Cc2n[nH]c(=O)c3ccccc23)ccc1F)N1CCN(C(=O)C2CC2)CC1 + CC[C@@]1(O)C(=O)OCc2c1cc1n(c2=O)Cc2cc3c(CN(C)C)c(O)ccc3nc2-1 | 6.36 |
| Cc1sc2c(c1C)C(c1ccc(Cl)cc1)=NC(CC(=O)Nc1ccc(O)cc1)c1nnc(C)n1-2 (centres undefined) + CC[C@@]1(O)C(=O)OCc2c1cc1n(c2=O)Cc2cc3c(CN(C)C)c(O)ccc3nc2-1 | 2.5 |
| CNCc1ccc(-c2cc(-c3nc(-c4ccc(S(=O)(=O)C(C)C)cc4)cnc3N)on2)cc1 + CC[C@@]1(O)C(=O)OCc2c1cc1n(c2=O)Cc2cc3c(CN(C)C)c(O)ccc3nc2-1 | 0.13 |

====

system: HSSY-II tumor spheroid viability; experiment: Anticancer human tumor HSSY-II cell line growth inhibition; conditions: second compound 0.00949 µM; first compound 0.0316 µM; active compounds read low; spheroids with HUVEC and MSC;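 note: spheroids exposed to compounds for seven days before reading; percent of DMSO vehicle control viability so 100% = untreated level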
Decide using viability, T/C alone. Strictly below 60%: TRUE. Equal to or above 60%: FALSE.

| molecule | assignedLabel |
| --- | --- |
| [2H]c1nc(C)nc([2H])c1-c1cc(NC[C@@H](C)c2cccc3c(C(=O)NC)ccnc23)ncn1 + CC[C@@]1(O)C(=O)OCc2c1cc1n(c2=O)Cc2cc3c(CN(C)C)c(O)ccc3nc2-1 | FALSE |
| Cc1cc(C)c(CNC(=O)c2cc(-c3ccc(CN4CCOCC4)cc3)cc3c2cnn3C2CCCC2)c(=O)[nH]1 + CC[C@@]1(O)C(=O)OCc2c1cc1n(c2=O)Cc2cc3c(CN(C)C)c(O)ccc3nc2-1 | TRUE |
| COc1ccc([C@@H](O)c2cc(-c3ncnc4cc(N5CCOCC5)ccc34)c(F)cc2Cl)nn1 + CC[C@@]1(O)C(=O)OCc2c1cc1n(c2=O)Cc2cc3c(CN(C)C)c(O)ccc3nc2-1 | FALSE |
| CC1COCCN1c1cc(-c2ccnn2C)c2ccnc(-c3ccn[nH]3)c2n1 (stereo unspecified) + CC[C@@]1(O)C(=O)OCc2c1cc1n(c2=O)Cc2cc3c(CN(C)C)c(O)ccc3nc2-1 | TRUE |
| CC(C)n1c(=O)n(C)c2cnc3cc(F)c(-c4ccc(OCCCN5CCCCC5)nc4)cc3c21 + CC[C@@]1(O)C(=O)OCc2c1cc1n(c2=O)Cc2cc3c(CN(C)C)c(O)ccc3nc2-1 | TRUE |

Data origin: PubChem BioAssay AID1845204
